Where do these numbers come from? They come from patent EP3958980B1.

COX-1 Inhibition% listing for selected compounds.
- Measured Target: COX-1 (Homo sapiens, UniProt P23219)
- Construct: endogenous in cells; host or cells: A549
- Sequence (P23219 24-599): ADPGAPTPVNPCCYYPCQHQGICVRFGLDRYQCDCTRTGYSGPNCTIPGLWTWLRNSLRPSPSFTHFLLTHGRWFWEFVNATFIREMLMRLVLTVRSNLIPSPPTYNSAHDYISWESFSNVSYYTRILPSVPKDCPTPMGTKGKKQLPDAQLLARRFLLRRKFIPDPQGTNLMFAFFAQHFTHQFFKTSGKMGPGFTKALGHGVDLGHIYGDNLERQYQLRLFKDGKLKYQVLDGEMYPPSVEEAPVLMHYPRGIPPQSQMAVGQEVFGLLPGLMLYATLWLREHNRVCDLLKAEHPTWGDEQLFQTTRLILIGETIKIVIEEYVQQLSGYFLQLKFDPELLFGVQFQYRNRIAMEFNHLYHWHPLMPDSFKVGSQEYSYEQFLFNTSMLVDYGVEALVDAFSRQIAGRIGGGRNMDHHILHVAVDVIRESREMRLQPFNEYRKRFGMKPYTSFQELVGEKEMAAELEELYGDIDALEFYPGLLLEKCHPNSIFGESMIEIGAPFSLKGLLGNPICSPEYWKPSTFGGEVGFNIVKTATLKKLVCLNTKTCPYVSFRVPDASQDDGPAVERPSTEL
- Method Description: COX activity assay (colorimetric kit) on lysates of treated A549 cells, COX-1
- Format: cell-based
- Condition Info: 24 hours incubation, IC50 concentrations
- Experimental: The intracellular COX, Akt and ROCK inhibitory effects of the active compounds determined with the MTT assay, were measured with the colorimetric assay according to the manufacturer's recommendations. COX activity was carried out using Cayman COX activity assay kit in compliance with the manufacturer's recommendations. […] The absorbance values were read at 540 nm.
Measurement Type: COX-1 Inhibition% (%)

> print(dat)
                                   compound   measurement.type  observed.value
1  N.N.[Cl][Pt][Cl] [Cisplatin, reference compound]  COX-1 Inhibition%           24.65
2  c1ccc(-c2ccc(C3=Nn4c(CCc5ccc6c(c5)OCO6)nnc4SC3)cc2)cc1 [Compound 14]  COX-1 Inhibition%            2.19
3  CS(=O)(=O)c1ccc(C2=Nn3c(CCc4ccc5c(c4)OCO5)nnc3SC2)cc1 [Compound 9]  COX-1 Inhibition%           35.21
4  FC(F)(F)c1ccc(C2=Nn3c(CCc4ccc5c(c4)OCO5)nnc3SC2)cc1 [Compound 11]  COX-1 Inhibition%           54.18

====

- Test system: A549 cells
- Method Description: Annexin V FITC / PI flow cytometry (apoptosis)
- Format: cell-based, human
- Condition Info: 24 hours, IC50 concentrations
Measurement Type: Viable cells% (%)

> print(dat)
                                   compound  observed.value
1  c1ccc(-c2ccc(C3=Nn4c(CCc5ccc6c(c5)OCO6)nnc4SC3)cc2)cc1 [Compound 14]           39.50
2  Fc1cccc(C2=Nn3c(CCc4ccc5c(c4)OCO5)nnc3SC2)c1 [Compound 12]           24.70
3  CS(=O)(=O)c1ccc(C2=Nn3c(CCc4ccc5c(c4)OCO5)nnc3SC2)cc1 [Compound 9]           72.50
4  FC(F)(F)c1ccc(C2=Nn3c(CCc4ccc5c(c4)OCO5)nnc3SC2)cc1 [Compound 11]           72.30

====

- Measured Target: COX-1 (Homo sapiens)
- Construct: endogenous in cells; host or cells: A549
- Method Description: COX activity assay (colorimetric kit) on lysates of treated A549 cells, COX-1
- Format: cell-based
- Condition Info: 24 hours incubation, IC50 concentrations
COX-1 activity (U/mL) listing for selected compounds.
Measurement Type: COX-1 activity (U/mL)

> print(dat)
                                   compound  display.unit  observed.value
1  FC(F)(F)c1ccc(C2=Nn3c(CCc4ccc5c(c4)OCO5)nnc3SC2)cc1 [Compound 11]          U/mL            1.88
2  N.N.[Cl][Pt][Cl] [Cisplatin, reference compound]          U/mL            3.08
3  c1ccc(-c2ccc(C3=Nn4c(CCc5ccc6c(c5)OCO6)nnc4SC3)cc2)cc1 [Compound 14]          U/mL            4.15
4  CS(=O)(=O)c1ccc(C2=Nn3c(CCc4ccc5c(c4)OCO5)nnc3SC2)cc1 [Compound 9]          U/mL            3.41
5  Fc1cccc(C2=Nn3c(CCc4ccc5c(c4)OCO5)nnc3SC2)c1 [Compound 12]          U/mL            2.51
